assay: label from the status in PepcDB records;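 also: failed if final PepcDB status was selected cloned or expressed and not failed if soluble or beyond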

primary.sequence: DGIVELKTVPFDQLVVYEQKLFPAERERFLRLWIKQPNSAAYAVVRDGQIVGYGVIRQSHTGLRIGPLNADNEQIAEQLLLALLAFRSDALVFLDVPDANLEAIKLVQRYGMKPVSEVARMYNKEIPNLLINRVFAVTSLEVG
protein production: failed
//
primary.sequence: MGLSHKFQVKQFVEISPYSQSRLRHEQPQTPIHSDITTYHCHRGQFDIVAGGLPCQGTSNAGNRQGLDDPRSALWAEQFRIIESDRPAIALIENPTGLLYRGLEQIICDLDSIGYMGEWNCISAQQVGLPHQRKRIFIIAYSNGLFNQVVPAPWSNQIGNHITQVRLSLETRSYQPGISKVASRIPIGVAKNIPGNYDARRAYGLSCSPRQAAVAWKRIDYLCSLLEHHHHHH
protein production: failed
//
primary.sequence: MQKIALCITGASGVIYGIKLLQVLEELDFSVDLVISRNAKVVLKEEHSLTFEEVLKGLKNVRIHEENDFTSPLASGSRLVHYRGVYVVPCSTNTLSCIANGINKNLIHRVGEVALKERVPLVLLVREAPYNEIHLENMLKITRMGGVVVPASPAFYHKPQSIDDMINFVVGKLLDVLRIEHNLYKRWRG
protein production: not failed
//
primary.sequence: MSKVNQQDIDKLIELVGGRGNIATVSHCITRLRFVLNDPAIARPKEIEQLRMVKGCFTNAGQFQVVIGTEVGDYYKALLATTGQTSADKEQVKQA
protein production: not failed
